system: HIV-1 (IIIB strain); type: cell-based; conditions: anti-HIV-1 activity, HIV-1-infected MT-4 cells
pEC50: −log10 of the molar value.
The following ranges of pEC50 define the classes used here: low = under 6, medium = from 6 up to 7, high = 7 and over

Examples with answers:
                                 compound  class_assignment
0  CCc1c(Cc2c(F)cccc2F)nc(SC(C)C)[nH]c1=O            medium
1    O=c1cc(Cc2c(F)cccc2F)nc(NC2CC2)[nH]1               low

Which band does CC(c1ccccc1)c1cc(=O)[nH]c(SC2CCCC2)n1 (stereo not drawn) fall in?
medium

Which band does CCC(C)Sc1nc(Cc2ccc(Cl)cc2)cc(=O)[nH]1 (stereo not drawn) fall in?
low

Which band does CCCCSc1nc(Cc2c(Cl)cccc2Cl)cc(=O)[nH]1 fall in?
medium

Which band does CCC(C)Sc1nc(Cc2ccccc2C)cc(=O)[nH]1 (stereo not drawn) fall in?
low

Which band does O=c1cc(Cc2c(F)cccc2F)nc(OC2CCCC2)[nH]1 fall in?
low

Which band does CC(C)CSc1nc(C(C)c2c(F)cccc2F)cc(=O)[nH]1 (stereo not drawn) fall in?
high

Which band does CCC(C)Sc1nc(Cc2cccc([N+](=O)[O-])c2)cc(=O)[nH]1 (stereo not drawn) fall in?
medium

Which band does CC1CCC(C)C(Oc2nc(Cc3ccccc3)cc(=O)[nH]2)C1 (stereo not drawn) fall in?
low

Which band does CCC(C)Sc1nc(Cc2ccc([N+](=O)[O-])cc2)c(C)c(=O)[nH]1 (stereo not drawn) fall in?
low

Which band does CC(c1cc(=O)[nH]c(NC2CCCC2)n1)c1c(F)cccc1F (stereo not drawn) fall in?
high

Which band does CCC(C)Sc1nc(Cc2ccccc2C)c(C)c(=O)[nH]1 (stereo not drawn) fall in?
low

Which band does CC(C)Sc1nc(C(C)c2c(F)cccc2F)cc(=O)[nH]1 (stereo not drawn) fall in?
high

---

Could you please report measured CC50 for the items listed next?
test system: mock-infected MT-4 cells; test: Cytotoxicity: viability of mock-infected cells by the MTT method; format: cell-based, human

>>> df
                                   molecule  reported_metric  value_measured
0  CCC(C)Sc1nc(Cc2ccccc2N)cc(=O)[nH]1 (stereo not drawn)             CC50        > 200 µM
1         CCNc1nc(Cc2c(F)cccc2F)cc(=O)[nH]1             CC50        > 200 µM
2  CCC(c1cc(=O)[nH]c(SC2CCCCC2)n1)c1c(Cl)cccc1Cl (stereo not drawn)             CC50        > 200 µM

Quick request: CC50 for each listed item, please.
1. O=c1cc(Cc2c(F)cccc2F)nc(SC2CCCC2)[nH]1
2. C=CCc1c(Cc2ccccc2)nc(SC(C)CC)[nH]c1=O (stereo not drawn)
3. CC1CCC(Oc2nc(Cc3ccccc3)cc(=O)[nH]2)CC1C (stereo not drawn)
4. CC(c1ccccc1)c1cc(=O)[nH]c(SC2CCCC2)n1 (stereo not drawn)
5. CCCCSc1nc(C(C)c2c(F)cccc2F)cc(=O)[nH]1 (stereo not drawn)
6. Cc1c(Cc2c(F)cccc2F)nc(SC(C)C)[nH]c1=O

> 200 µM
> 200 µM
58 µM
159 µM
> 200 µM
> 200 µM

---

Tested on: HIV-1 (IIIB strain)
Format: cell-based
Settings: selectivity index (CC50/EC50)
Experimental: Compounds. Compounds were solubilized in DMSO at 200 mM and then diluted into culture medium. Cells and viruses. […] HIV Titration. […] The infectious virus titre was determined by light microscope scoring of cytopathicity after 4 days of incubation and the virus titres were expressed as CCID50/mL. Anti-HIV Assays. […] After a 4-day incubation at 37° C., the number of viable cells was determined by the 3-(4,5-dimethylthiazol-[…])-2,5-diphenyltetrazolium bromide (MTT) method. […]
REPORTED_METRIC: SI

>>> print(df.to_string())
                                   molecule  reported_metric  value_measured
0  CCC(C)Sc1nc(Cc2cccc(OC)c2)cc(=O)[nH]1 (stereo not drawn) [MC 957]               SI            >166
1  CCC(c1ccccc1)c1cc(=O)[nH]c(SC2CCCCC2)n1 (stereo not drawn) [MC 903]               SI            >154
2  CC(c1ccccc1)c1cc(=O)[nH]c(SC2CCCCC2)n1 (stereo not drawn) [MC 898]               SI             248
3  CC(c1cc(=O)[nH]c(SC2CCCCC2)n1)c1cccc2ccccc12 (stereo not drawn) [MC 974]               SI           321.4
4  Cc1c(Cc2c(Cl)cccc2Cl)nc(SCC(C)C)[nH]c1=O [MC 916]               SI            >166
5  CC(c1cc(=O)[nH]c(SC2CCCCC2)n1)c1c(Cl)cccc1Cl (stereo not drawn) [MC 1016]               SI             >69
6  CCC(C)Sc1nc(Cc2ccccc2C)cc(=O)[nH]1 (stereo not drawn) [MC 806]               SI            >111
7  CCC(c1cc(=O)[nH]c(SC2CCCC2)n1)c1c(Cl)cccc1Cl (stereo not drawn) [MC 1002]               SI            23.4

Quick request: SI for each listed item, please.
1. CCC(C)Sc1nc(C(C)c2c(F)cccc2F)cc(=O)[nH]1 (stereo not drawn) [MC 1110]
2. CCCCSc1nc(Cc2c(Cl)cccc2Cl)c(C)c(=O)[nH]1 [MC 920]
3. CCC(C)Sc1nc(Cc2c(F)cccc2F)cc(=O)[nH]1 (stereo not drawn) [MC 848]
4. Cc1c(Cc2c(F)cccc2F)nc(NCc2ccccc2)[nH]c1=O [MC 1105]
5. Cc1ccccc1Cc1cc(=O)[nH]c(SC2CCCC2)n1 [MC 842]
6. CCNc1nc(Cc2c(F)cccc2F)cc(=O)[nH]1 [MC 1119]
7. CC(C)Sc1nc(Cc2c(F)cccc2F)c(C(C)C)c(=O)[nH]1 [MC 1039]

1. >6,666
2. >171
3. 5,000
4. 100
5. >59
6. >250
7. >500

Quick request: SI for each listed item, please.
1. CCCCSc1nc(Cc2c(F)cccc2F)c(C)c(=O)[nH]1 [MC 905]
2. CCCCSc1nc(C(C)c2c(F)cccc2F)cc(=O)[nH]1 (stereo not drawn) [MC 1045]
3. CCC(C)Sc1nc(C(C)c2c(F)cccc2F)c(C)c(=O)[nH]1 (stereo not drawn) [MC 1109]
4. COCCNc1nc(Cc2c(F)cccc2F)cc(=O)[nH]1 [MC 1043]
5. Cc1c(Cc2c(F)cccc2F)nc(SCC(C)C)[nH]c1=O [MC 921]
6. CCC(C)Sc1nc(Cc2ccc(C)cc2)c(C)c(=O)[nH]1 (stereo not drawn) [MC 845]

[">2,500", "2,857", "6,666", ">250", 640, 32]

---

system: HIV-1 (IIIB strain); type: cell-based; details: selectivity index (CC50/EC50)
REPORTED_METRIC: SI

Here's what some known entries look like.
In [3]: df
Out[3]:
                                   molecule  reported_metric  value_measured
0  O=c1cc(Cc2c(F)cccc2F)nc(NC2CCCCC2)[nH]1 [MC 1049]               SI             471
1  CNc1nc(Cc2c(F)cccc2F)cc(=O)[nH]1 [MC 1167]               SI            >133
2  Cc1c(Cc2c(Cl)cccc2Cl)nc(SC2CCCC2)[nH]c1=O [MC 915]               SI            >111

Quick request: SI for each listed item, please.
1. CCC(C)Sc1nc(Cc2ccccc2F)c(C)c(=O)[nH]1 (stereo not shown) [MC 913]
2. CCC(c1cc(=O)[nH]c(SC2CCCC2)n1)c1cccc2ccccc12 (stereo not shown) [MC 973]
3. O=c1cc(Cc2c(F)cccc2F)nc(SC2CCCCC2)[nH]1 [MC 870]
4. CCC(C)Sc1nc(Cc2ccc(C(F)(F)F)cc2)cc(=O)[nH]1 (stereo not shown) [MC 959]

341
17
2,500
8

---

system: HIV-1 (IIIB strain); format: cell-based; conditions: anti-HIV-1 activity, acutely infected MT-4 cells, MTT
Could you please report measured EC50 for the items listed next?
One number for each entry, in nM.

Here's what some known entries look like.
In [3]: df
Out[3]:
                                   compound  reported_metric  value_measured
0  Cc1c(C(C)c2c(F)cccc2F)nc(SC2CCCC2)[nH]c1=O (single isomer, unassigned) [MC 1047+]             EC50               2
1      CCc1c(Cc2c(F)cccc2F)nc(SCSC)[nH]c1=O             EC50             110

# context switch: different compound, same EC50
Find the recorded EC50 belonging to CSCSc1nc(Cc2c(F)cccc2F)c(C)c(=O)[nH]1 and report it.
120
